procedure.summary: Perfect off-state by site-specific incorporation of o-nitrobenzyl (o-NB) unit into RNase S' was determined before photolysis at 10 x E5 M/min
Non-standard residues stand in square brackets, D forms with d. Residues, ends and D or L forms follow the SMILES beside them. *: point of attachment. X1 = O=[N+]([O-])c1ccccc1CO*; Nle = CCCC[C@H](N)C(=O)O
assay.readout: Photolysis
Write the number on its own, no unit after it.

[ask] Consider the compound shown here: CCCC[C@H](NC(=O)[C@H](Cc1c[nH]cn1)NC(=O)[C@H](CCC(N)=O)NC(=O)[C@H](CCCN=C(N)N)NC(=O)[C@H](CCC(=O)O)NC(=O)[C@H](Cc1ccccc1)NC(=O)[C@H](CCCCN)NC(=O)[C@H](C)NC(=O)[C@H](C)NC(=O)[C@H](C)NC(=O)[C@@H](NC(=O)[C@H](CCC(=O)O)NC(=O)[C@@H](N)CCCCN)[C@@H](C)O)C(=O)N[C@@H](CC(=O)OCc1ccccc1[N+](=O)[O-])C(=O)N[C@@H](CO)C(=O)O (H-KETAAAKFERQH[Nle]D(X1)S-OH) What is its recorded Photolysis?
[reply] 0.29
